# TARGET_OR_SYSTEM: JAK3: Recombinant human kinase domain (Homo sapiens)
# Construct: JAK3: Recombinant human kinase domain from Millipore (Cat #14-629) or prepared
# Sequence (P52333 822-1111 limits assumed): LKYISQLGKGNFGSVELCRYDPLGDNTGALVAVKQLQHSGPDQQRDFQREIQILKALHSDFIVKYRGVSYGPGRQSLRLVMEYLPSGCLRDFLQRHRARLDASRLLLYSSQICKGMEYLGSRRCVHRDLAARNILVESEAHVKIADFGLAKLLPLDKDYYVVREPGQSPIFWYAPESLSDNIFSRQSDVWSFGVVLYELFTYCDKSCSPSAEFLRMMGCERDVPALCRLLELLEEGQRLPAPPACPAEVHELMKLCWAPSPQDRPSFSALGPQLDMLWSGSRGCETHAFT
# ASSAY_TEXT: Determination of IC50 of Janus Kinase (JAK) inhibition, radioactive end-point 33P-ATP assay, JAK3
# SETUP_CONDITIONS: ATP 1.5 uM, peptide 50 uM, 20 minutes, read-out: JAK3-INHIB-DR/v1~NO ADDITIVE~Enzyme_Conc = 100
Rule: measured IC50 below 7 nM gets True; anything equal to or greater than 7 nM gets False.

Q: Dear reviewer, please state whether CC[C@H](C)NC(=O)c1c[nH]c2ncc(-c3nn(C)c4cc(F)ccc34)nc12 [Example I-178] has IC50 strictly beneath 7 nM.
Ans: True

Q: Determine if C[C@H](CN1CC(F)C1)NC(=O)c1c[nH]c2ncc(-c3nn(C)c4cc(Cl)ccc34)nc12 [Example I-123] shows IC50 strictly lower than 7 nM.
Ans: False

Q: Does this compound meet the criterion IC50 < 7 nM? C[C@@H](NC(=O)c1c[nH]c2ncc(-c3nn(C)c4cc(F)ccc34)nc12)C1COC1 [Example I-252]
Ans: False

Q: For C[C@@H](NC(=O)c1c[nH]c2ncc(-c3nn(CC(=O)O)c4cc(Cl)ccc34)nc12)C(=O)N1CC(C#N)C1 [Example I-226] , is the recorded IC50 below the cut-off of 7 nM?
Ans: False

Q: Is it true that IC50 reported for C[C@H](NC(=O)c1c[nH]c2ncc(-c3nn(C)c4cc(F)ccc34)nc12)C(C)(C)C [Example I-45] is less than 7 nM?
Ans: True

Q: Hello, is IC50 of the following compound strictly smaller than 7 nM? C[C@@H](C#N)CNC(=O)c1c[nH]c2ncc(-c3nn(C)c4cc(F)ccc34)nc12 [Example I-136]
Ans: False

Q: Please let me know if CC(CN1CCC(C#N)C1)NC(=O)c1c[nH]c2ncc(-c3nn(C)c4cc(Cl)ccc34)nc12 (centres unmarked) [Example I-125] shows IC50 below 7 nM.
Ans: False

Q: API: query returns whether the compound falls strictly under 7 nM in IC50. Query: Cn1nc(-c2cnc3[nH]cc(C(=O)NC4CCCCC4)c3n2)c2ccc(Cl)cc21 [Example I-110]
Ans: False

Q: Threshold test, IC50 < 7 nM: COC[C@H](C)NC(=O)c1c[nH]c2ncc(-c3cnc4cc(C#N)ccn34)nc12 [Example I-222]
Ans: False

Q: Just wondering, is IC50 of CC(NC(=O)c1c[nH]c2ncc(-c3nn(C)c4cc(Cl)ccc34)nc12)c1ncco1 (centres unmarked) [Example I-48] below 7 nM?
Ans: True

Q: Lab note: IC50 threshold 7 nM. Does this compound come in strictly under it? CC1CCCCC1NC(=O)c1c[nH]c2ncc(-c3nn(C)c4cc(Cl)ccc34)nc12 (centres unmarked) [Example I-153]
Ans: True

Q: Please indicate whether the reported IC50 of Cn1nc(-c2cnc3[nH]cc(C(=O)NC4CCCC(N)C4)c3n2)c2ccc(Cl)cc21 (centres unmarked) [Example I-169] is strictly below 7 nM.
Ans: False

Q: IC50 strictly < 7 nM for this compound? C[C@@H](COC(F)F)NC(=O)c1c[nH]c2ncc(-c3nn(C)c4cc(F)ccc34)nc12 [Example I-193]
Ans: True

Q: Determine whether this compound shows IC50 lower than 7 nM (ties excluded): C[C@H](CS(C)(=O)=O)NC(=O)c1c[nH]c2ncc(-c3nn(C)c4cc(Cl)ccc34)nc12 [Example I-105]
Ans: False

Q: Criterion: IC50 strictly below 7 nM. Is it met by Cn1nc(-c2cnc3[nH]cc(C(=O)NC4(C)CC4)c3n2)c2ccc(F)cc21 [Example I-378] ?
Ans: False

Q: In plain terms, does CC(C)n1nc(-c2cnc3[nH]cc(C(=O)N[C@H](C)C(=O)N4CC(C#N)C4)c3n2)c2ccc(Cl)cc21 [Example I-91] come in under 7 nM for IC50?
Ans: True

Q: Hi there! Is IC50 for N#CC1CCN(C(=O)[C@H](NC(=O)c2c[nH]c3ncc(-n4ncc5cc(Cl)ccc54)nc23)C2CC2)CC1 [Example I-66] below 7 nM, do you know?
Ans: True

Q: Answer whether the compound Cn1nc(-c2cnc3[nH]cc(C(=O)NC4(c5ccc(Br)cc5)CCC4)c3n2)c2ccc(F)cc21 [Example I-210] has IC50 strictly less than 7 nM
Ans: False

Q: hey, is IC50 for C[C@@H](NC(=O)c1c[nH]c2ncc(-c3nn(CCN4CCOCC4)c4cc(Cl)ccc34)nc12)C(=O)N1CC(C#N)C1 [Example I-231] lower than 7 nM or not?
Ans: True

Q: For Cc1ccc2c(-c3cnc4[nH]cc(C(=O)N[C@H](C)C(=O)N5CC(C#N)C5)c4n3)ncn2c1 [Example I-31] , is the recorded IC50 below the cut-off of 7 nM?
Ans: True

Q: hey, is IC50 for CCn1nc(-c2cnc3[nH]cc(C(=O)N[C@H](C)C(=O)N4CC(C#N)C4)c3n2)c2ccc(Cl)cc21 [Example I-85] lower than 7 nM or not?
Ans: True

Q: Please check: IC50 for CC[C@H](CO)NC(=O)c1c[nH]c2ncc(-c3nn(C)c4cc(Cl)ccc34)nc12 [Example I-161] , strictly under 7 nM or not?
Ans: False

Q: Confirm or reject: IC50 of C[C@@H](NC(=O)c1c[nH]c2ncc(-c3nn(C)c4cc(Cl)ccc34)nc12)[C@H]1C[C@H]1C#N (single isomer, unassigned) [Example I-207] lies strictly below 7 nM
Ans: True

Q: For this compound, is IC50 lower than 7 nM? Cn1nc(-c2cnc3[nH]cc(C(=O)N[C@@H](C(=O)N4CCC(C#N)CC4)C4CC4)c3n2)c2ccc(C3CC3)cc21 [Example I-9]
Ans: True

Q: hey, is IC50 for C[C@H](NC(=O)c1c[nH]c2ncc(-c3nn(C)c4cc(Cl)ccc34)nc12)C(C)(C)C#N [Example I-80] lower than 7 nM or not?
Ans: False

Q: Could you please tell me whether IC50 recorded for C[C@@H](CC#N)NC(=O)c1c[nH]c2ncc(-c3nn(C)c4cc(Cl)ccc34)nc12 [Example I-142] is less than 7 nM?
Ans: False

Q: Confirm or reject: IC50 of CC(Cc1ccccc1)NC(=O)c1c[nH]c2ncc(-c3nn(C)c4cc(Cl)ccc34)nc12 (centres unmarked) [Example I-150] lies strictly below 7 nM
Ans: False

Q: Given the entry Cn1nc(-c2cnc3[nH]cc(C(=O)N[C@H]4CC[C@H](N)CC4)c3n2)c2ccc(Cl)cc21 [Example I-146] , would its reported IC50 be below 7 nM?
Ans: False
